# ASSAY_TARGET: PatAB (PatA^WTB^WT) (Streptococcus pneumoniae, UniProt A0ACD7PU88+Q8DN70)
# Construct: full length; N-terminal His6-PatA and C-terminal PatB-His10, tags kept; coexpressed in Lactococcus lactis NZ9000 ΔlmrA ΔlmrCD
# PROTOCOL_TEXT: ATPase inhibition, malachite green Pi assay
Please provide measured pIC50 for the entries that follow.
Numbers only, as −log10 of the molar value.

{"COMPOUND_SMILES": "CO[C@@H]1[C@@H](OC(N)=O)[C@@H](O)[C@H](Oc2ccc3c(O)c(NC(=O)c4ccc(O)c(CC=C(C)C)c4)c(=O)oc3c2C)OC1(C)C", "ASSAY_TARGET": "PatAB (PatA^WTB^WT) (Streptococcus pneumoniae, UniProt A0ACD7PU88+Q8DN70)", "pIC50": 5.34}

Please look at the items below and tell me pIC50 for each one, in order.
1. CO[C@@H]1[C@@H](OC(=O)c2ccc(C)[nH]2)[C@@H](O)[C@H](Oc2ccc3c(O)c(NC(=O)c4c[nH]c(C(=O)Nc5c(O)c6ccc(O[C@@H]7OC(C)(C)[C@H](OC)[C@@H](OC(=O)c8ccc(C)[nH]8)[C@H]7O)c(C)c6oc5=O)c4C)c(=O)oc3c2C)OC1(C)C
2. CC[n+]1c(-c2ccccc2)c2cc(N)ccc2c2ccc(N)cc21
3. CC[N+](C)(CC)CCC[n+]1c(-c2ccccc2)c2cc(N)ccc2c2ccc(N)cc21

*A*
1. 5.43
2. 5.15
3. 6.05

* * *

# ASSAY_TARGET: PatAB (PatA^WTB^WT) (Streptococcus pneumoniae, UniProt A0ACD7PU88+Q8DN70)
# Construct: full length; N-terminal His6-PatA and C-terminal PatB-His10, tags kept; coexpressed in Lactococcus lactis NZ9000 ΔlmrA ΔlmrCD
# PROTOCOL_TEXT: fluorescence anisotropy titration
VALUE_TYPE: Kd

*Q* # get_value(readout='Kd', item= CC[n+]1c(-c2ccccc2)c2cc(N)ccc2c2ccc(N)cc21 [Ethidium] )
*A* 0.103 µM

* * *

# ASSAY_TARGET: PatAB (PatA^WTB^WT) (Streptococcus pneumoniae, UniProt A0ACD7PU88+Q8DN70, Q8DN70:Q521A)
# PROTOCOL_TEXT: biochemical
Please provide measured IC50 for the entries that follow.
Answers are plain numbers, in µM.

{"MOLECULE": "CC[n+]1c(-c2ccccc2)c2cc(N)ccc2c2ccc(N)cc21 [Ethidium]", "IC50 [µM]": 6.5}
{"MOLECULE": "CO[C@@H]1[C@@H](OC(=O)c2ccc(C)[nH]2)[C@@H](O)[C@H](Oc2ccc3c(O)c(NC(=O)c4c[nH]c(C(=O)Nc5c(O)c6ccc(O[C@@H]7OC(C)(C)[C@H](OC)[C@@H](OC(=O)c8ccc(C)[nH]8)[C@H]7O)c(C)c6oc5=O)c4C)c(=O)oc3c2C)OC1(C)C [Coumermycin A1]", "IC50 [µM]": 3}
{"MOLECULE": "CO[C@@H]1[C@@H](OC(N)=O)[C@@H](O)[C@H](Oc2ccc3c(O)c(NC(=O)c4ccc(O)c(CC=C(C)C)c4)c(=O)oc3c2C)OC1(C)C [Novobiocin]", "IC50 [µM]": 9.7}

Here's the next entry for you.
*Q* # get_value(readout='IC50', item= CC[N+](C)(CC)CCC[n+]1c(-c2ccccc2)c2cc(N)ccc2c2ccc(N)cc21 [Propidium] )
*A* 0.9

Just for reference, paper PMC9541285 is where these values come from.
